target: Human TRPA1 (Homo sapiens (Human), UniProt O75762); assay: FLIPR based intracellular Ca2+ assay and membrane potential assay, inhibition of AITC-activated TRPA1; conditions: Table 1, AITC as agonist, HEK293-F cells transiently expressing human TRPA1
Sequence (O75762 whole entry): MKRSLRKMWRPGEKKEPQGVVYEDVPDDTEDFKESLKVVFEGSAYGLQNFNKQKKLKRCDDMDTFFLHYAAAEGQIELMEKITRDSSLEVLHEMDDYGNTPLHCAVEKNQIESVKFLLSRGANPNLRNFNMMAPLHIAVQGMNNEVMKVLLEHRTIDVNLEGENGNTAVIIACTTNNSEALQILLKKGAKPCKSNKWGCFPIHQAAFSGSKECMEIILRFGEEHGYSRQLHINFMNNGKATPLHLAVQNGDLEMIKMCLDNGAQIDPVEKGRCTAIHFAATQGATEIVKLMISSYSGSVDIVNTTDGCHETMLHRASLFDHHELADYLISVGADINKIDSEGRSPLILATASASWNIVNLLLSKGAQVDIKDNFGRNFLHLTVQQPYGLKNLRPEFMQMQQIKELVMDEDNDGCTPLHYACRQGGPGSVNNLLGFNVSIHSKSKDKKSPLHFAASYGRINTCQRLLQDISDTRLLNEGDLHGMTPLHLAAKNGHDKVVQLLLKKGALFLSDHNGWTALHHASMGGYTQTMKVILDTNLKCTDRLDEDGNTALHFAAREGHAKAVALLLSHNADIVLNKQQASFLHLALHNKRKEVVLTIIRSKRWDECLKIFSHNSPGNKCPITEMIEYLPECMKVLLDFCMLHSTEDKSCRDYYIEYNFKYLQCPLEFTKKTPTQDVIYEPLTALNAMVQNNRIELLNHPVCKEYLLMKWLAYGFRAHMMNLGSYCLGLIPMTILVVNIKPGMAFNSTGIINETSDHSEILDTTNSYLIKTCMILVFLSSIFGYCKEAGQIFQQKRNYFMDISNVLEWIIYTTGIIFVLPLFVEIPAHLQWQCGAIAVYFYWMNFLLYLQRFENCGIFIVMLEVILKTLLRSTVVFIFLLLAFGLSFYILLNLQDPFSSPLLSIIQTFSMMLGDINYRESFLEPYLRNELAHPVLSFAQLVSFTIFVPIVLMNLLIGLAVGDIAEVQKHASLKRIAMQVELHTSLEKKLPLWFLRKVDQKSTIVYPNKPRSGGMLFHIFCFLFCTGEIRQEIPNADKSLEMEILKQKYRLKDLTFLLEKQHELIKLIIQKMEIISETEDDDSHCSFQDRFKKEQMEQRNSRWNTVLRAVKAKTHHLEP
measurement_name: IC50 (µM)

[
  {
    "query_smiles": "CCCCC(/C=C/c1ccc(F)cc1)=N\\O",
    "target_system": "Human TRPA1 (Homo sapiens (Human), UniProt O75762)",
    "measurement_name": "IC50",
    "cmp": ">",
    "observed": 100
  },
  {
    "query_smiles": "CC(=C\\c1ccc(F)cc1)/C(=N/O)C(C)C",
    "target_system": "Human TRPA1 (Homo sapiens (Human), UniProt O75762)",
    "measurement_name": "IC50",
    "cmp": "=",
    "observed": 3.3
  },
  {
    "query_smiles": "CCC(=N\\O)/C(C)=C/c1ccc(F)c(C(F)(F)F)c1",
    "target_system": "Human TRPA1 (Homo sapiens (Human), UniProt O75762)",
    "measurement_name": "IC50",
    "cmp": ">",
    "observed": 100
  },
  {
    "query_smiles": "CC(=C\\c1ccc(F)cc1)/C(=N/O)C(C)(C)C",
    "target_system": "Human TRPA1 (Homo sapiens (Human), UniProt O75762)",
    "measurement_name": "IC50",
    "cmp": "=",
    "observed": 8
  },
  {
    "query_smiles": "CCC(=N\\O)/C(C)=C/c1cc(F)c(F)c(F)c1",
    "target_system": "Human TRPA1 (Homo sapiens (Human), UniProt O75762)",
    "measurement_name": "IC50",
    "cmp": "=",
    "observed": 4.67
  },
  {
    "query_smiles": "CCC(=N\\O)/C(C)=C/c1ccc(F)c(F)c1",
    "target_system": "Human TRPA1 (Homo sapiens (Human), UniProt O75762)",
    "measurement_name": "IC50",
    "cmp": "=",
    "observed": 0.574
  },
  {
    "query_smiles": "CCCC(=N\\O)/C(C)=C/c1ccc(F)cc1",
    "target_system": "Human TRPA1 (Homo sapiens (Human), UniProt O75762)",
    "measurement_name": "IC50",
    "cmp": "=",
    "observed": 0.5
  },
  {
    "query_smiles": "CCC(=N\\O)/C(C)=C/c1ccccc1F",
    "target_system": "Human TRPA1 (Homo sapiens (Human), UniProt O75762)",
    "measurement_name": "IC50",
    "cmp": "=",
    "observed": 4.6
  },
  {
    "query_smiles": "CCC(=N\\O)/C(C)=C/c1ccc(F)c(C)c1",
    "target_system": "Human TRPA1 (Homo sapiens (Human), UniProt O75762)",
    "measurement_name": "IC50",
    "cmp": ">",
    "observed": 100
  },
  {
    "query_smiles": "CCCCC(=N\\O)/C(C)=C/c1ccc(F)cc1",
    "target_system": "Human TRPA1 (Homo sapiens (Human), UniProt O75762)",
    "measurement_name": "IC50",
    "cmp": "=",
    "observed": 4.4
  },
  {
    "query_smiles": "CC(/C=C/c1ccc(F)cc1)=N\\O",
    "target_system": "Human TRPA1 (Homo sapiens (Human), UniProt O75762)",
    "measurement_name": "IC50",
    "cmp": "=",
    "observed": 20.6
  },
  {
    "query_smiles": "CCCC(/C=C/c1ccc(F)cc1)=N\\O",
    "target_system": "Human TRPA1 (Homo sapiens (Human), UniProt O75762)",
    "measurement_name": "IC50",
    "cmp": "=",
    "observed": 5.91
  },
  {
    "query_smiles": "CC(=C\\c1ccc(F)cc1)/C(=N\\O)C(C)C",
    "target_system": "Human TRPA1 (Homo sapiens (Human), UniProt O75762)",
    "measurement_name": "IC50",
    "cmp": "=",
    "observed": 0.85
  },
  {
    "query_smiles": "CCC(=N\\O)/C(C)=C/c1ccc(F)c(Cl)c1",
    "target_system": "Human TRPA1 (Homo sapiens (Human), UniProt O75762)",
    "measurement_name": "IC50",
    "cmp": "=",
    "observed": 6
  }
]

---

test: Pharmacokinetics after oral dose in fasted male Sprague-Dawley rats (plasma and brain); assay type: in vivo; details: brain and plasma, 10 μmol/kg, rat, after oral administration, text calls it brain/plasma ratio

[
  {
    "query_smiles": "CCC(=N\\O)/C(C)=C/c1ccc(F)cc1",
    "Kp": 1.2
  }
]

---

assay: Pharmacokinetics after oral dose in fasted male Sprague-Dawley rats (plasma and brain); assay type: in vivo; details: 10 umol/kg, rat, oral, plasma

[
  {
    "query_smiles": "CCC(=N\\O)/C(C)=C/c1ccc(F)cc1",
    "quantity_unit": "nM",
    "Cmax": 720
  }
]

---

test: Pharmacokinetics after oral dose in fasted male Sprague-Dawley rats (plasma and brain); assay type: in vivo; conditions: plasma, 10 umol/kg, rat, oral gavage, solution in 10% DMSO/PEG-400

[
  {
    "query_smiles": "CCC(=N\\O)/C(C)=C/c1ccc(F)cc1",
    "quantity_unit": "%",
    "bioavailability": 38
  }
]
